This collection of values is drawn from ChEMBL document CHEMBL1131286.

// CCh lookup, one value per entry
- TESTED SYSTEM: UniProt P20309
- Sequence (P20309 whole entry, looked up): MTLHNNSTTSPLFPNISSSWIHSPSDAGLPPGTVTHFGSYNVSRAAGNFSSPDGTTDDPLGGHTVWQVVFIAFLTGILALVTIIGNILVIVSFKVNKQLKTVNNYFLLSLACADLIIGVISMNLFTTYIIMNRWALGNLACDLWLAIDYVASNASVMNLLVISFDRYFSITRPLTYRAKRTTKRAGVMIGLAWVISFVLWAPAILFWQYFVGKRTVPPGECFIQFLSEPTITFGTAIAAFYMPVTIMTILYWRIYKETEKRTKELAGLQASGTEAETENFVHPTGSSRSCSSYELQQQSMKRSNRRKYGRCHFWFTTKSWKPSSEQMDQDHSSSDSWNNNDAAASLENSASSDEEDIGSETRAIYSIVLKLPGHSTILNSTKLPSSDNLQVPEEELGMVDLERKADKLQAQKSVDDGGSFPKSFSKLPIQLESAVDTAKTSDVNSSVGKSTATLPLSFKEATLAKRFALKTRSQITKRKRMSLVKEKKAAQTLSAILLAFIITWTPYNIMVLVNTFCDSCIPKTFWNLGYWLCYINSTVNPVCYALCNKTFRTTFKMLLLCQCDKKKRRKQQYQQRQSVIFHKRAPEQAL
- METHOD DESCRIPTION: Inositol phosphate(PI) accumulation in CHO cells expressing Muscarinic acetylcholine receptor M3 as maximal response at 100 uM relative to carbachol
- Type: functional, cell-based
Answer format: numeric, % implied, no suffix.

Worked examples follow.
What value of CCh has been recorded for this entry: Fc1ccccc1C#CCO/N=C1\CN2CCC1C2 (stereo not drawn)
2

Another molecule to look at: Fc1ccc(C#CCO/N=C2\CN3CCC2C3)cc1 (stereo not drawn)
10

Also need COc1cccc(C#CCO/N=C2\CN3CCC2C3)c1 (stereo not drawn) , thanks.
6

More entries:
Data request, read-out CCh, for COc1ccc(C#CCO/N=C2\CN3CCC2C3)cc1 (stereo not drawn)
2

Similarly, Fc1cccc(C#CCO/N=C2\CN3CCC2C3)c1 (stereo not drawn) ?
12

Then what about the molecule C(#Cc1ccsc1)CO/N=C1\CN2CCC1C2 (stereo not drawn) ?
19

Similarly, Clc1ccccc1C#CCO/N=C1\CN2CCC1C2 (stereo not drawn) ?
6

Please do the same for Clc1cccc(C#CCO/N=C2\CN3CCC2C3)c1 (stereo not drawn) as well.
4

* * *

- TESTED SYSTEM: Muscarinic acetylcholine receptor
- METHOD DESCRIPTION: Muscarinic acetylcholine receptor binding assay was conducted using [3H]quinuclidinyl benzilate (QNB) to label antagonist sites in membrane preparations from rat neocortex
ENDPOINT: log10(IC50) (log10 of the value in nM)
Lab note - IC50 converted to log10 from values in nM.

Which log10(IC50) reading was recorded for the molecule C#C/C(C)=C\CO/N=C1\CN2CCC1C2 (stereo not drawn) ?
2.91

Try C(#Cc1ccsc1)CO/N=C1\CN2CCC1C2 (stereo not drawn) next.
3.43

Continuing:
Request the reported log10(IC50) associated with C#CCO/N=C1\CN2CCC1C2 (stereo not drawn)
3.64

Now consider C#CCC#CCC#CCO/N=C1\CN2CCC1C2 (stereo not drawn) and answer again.
2.98

Next record, please: C#C/C=C/CO/N=C1\CN2CCC1C2 (stereo not drawn)
4.14

Same read-out for C=CCO/N=C1\CN2CCC1C2 (stereo not drawn) ?
3.68

Same thing, different molecule: C(#Cc1cccs1)CO/N=C1\CN2CCC1C2 (stereo not drawn)
3.37

Please do the same for CO/N=C1\CN2CCC1C2 (stereo not drawn) as well.
4.38

* * *

- TESTED SYSTEM: UniProtKB P08912
- Sequence (P08912 whole entry): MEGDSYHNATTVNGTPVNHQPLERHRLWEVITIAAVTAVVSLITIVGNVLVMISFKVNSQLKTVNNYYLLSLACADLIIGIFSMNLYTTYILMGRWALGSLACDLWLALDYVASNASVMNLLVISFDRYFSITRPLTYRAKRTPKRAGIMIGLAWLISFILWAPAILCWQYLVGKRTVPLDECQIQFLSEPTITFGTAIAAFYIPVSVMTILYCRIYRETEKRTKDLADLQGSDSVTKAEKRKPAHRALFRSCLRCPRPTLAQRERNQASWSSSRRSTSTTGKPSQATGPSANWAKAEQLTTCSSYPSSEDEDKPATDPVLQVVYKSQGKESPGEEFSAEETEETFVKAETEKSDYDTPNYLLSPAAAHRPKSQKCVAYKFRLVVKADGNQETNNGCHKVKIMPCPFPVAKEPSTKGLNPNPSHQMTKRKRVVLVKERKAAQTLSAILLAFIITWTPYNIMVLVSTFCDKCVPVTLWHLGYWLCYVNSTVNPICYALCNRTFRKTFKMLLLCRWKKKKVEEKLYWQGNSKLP
- METHOD DESCRIPTION: Inositol phosphate(PI) accumulation in CHO cells expressing Muscarinic acetylcholine receptor M5 as maximal response at 100 uM relative to carbachol
- Format: functional, cell-based
ENDPOINT: CCh
Write your answer as a measured quantity: the number, then the unit.

Look at this compound and give its reported CCh. Clc1cccc(C#CCO/N=C2\CN3CCC2C3)c1 (stereo not drawn)
3%

Others:
If you can, please state the reported CCh value of Clc1ccc(C#CCO/N=C2\CN3CCC2C3)cc1 (stereo not drawn) .
0%

Would you kindly repeat that for Clc1ccccc1C#CCO/N=C1\CN2CCC1C2 (stereo not drawn) ?
4%

Same thing, different compound: Fc1cccc(C#CCO/N=C2\CN3CCC2C3)c1 (stereo not drawn)
9%

Please do the same for Fc1ccc(C#CCO/N=C2\CN3CCC2C3)cc1 (stereo not drawn) as well.
13%

And the next one, C#CCO/N=C1\CN2CCC1C2 (stereo not drawn) ?
42%

Also C(#Cc1ccsc1)CO/N=C1\CN2CCC1C2 (stereo not drawn) ?
13%

Likewise for Fc1ccccc1C#CCO/N=C1\CN2CCC1C2 (stereo not drawn) ?
6%

* * *

- TESTED SYSTEM: Muscarinic acetylcholine receptor M1 (Homo sapiens, UniProt P11229)
- Sequence (P11229 whole entry): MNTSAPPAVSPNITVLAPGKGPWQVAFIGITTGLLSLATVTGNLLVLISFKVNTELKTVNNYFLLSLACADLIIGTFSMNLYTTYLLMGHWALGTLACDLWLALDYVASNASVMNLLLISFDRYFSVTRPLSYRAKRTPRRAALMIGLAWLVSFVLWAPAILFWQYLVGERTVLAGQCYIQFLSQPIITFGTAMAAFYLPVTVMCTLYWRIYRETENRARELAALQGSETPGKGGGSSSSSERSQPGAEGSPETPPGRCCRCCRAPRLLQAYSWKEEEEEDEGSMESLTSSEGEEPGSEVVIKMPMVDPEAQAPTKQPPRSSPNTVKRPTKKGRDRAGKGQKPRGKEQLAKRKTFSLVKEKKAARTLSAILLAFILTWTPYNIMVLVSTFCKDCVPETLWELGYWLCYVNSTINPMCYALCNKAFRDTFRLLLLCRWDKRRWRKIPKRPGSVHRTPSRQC
- METHOD DESCRIPTION: biochemical
- Type: cell-based, CHO
- Description: Binding affinity of [3H]-QNB to CHO cells expressing human Muscarinic acetylcholine receptor M1
ENDPOINT: pIC50
Recall that pIC50 is obtained by taking minus log10 of the concentration measured in molar.

Would you please look over these solved cases?
# query: pIC50 of entry C#CCC#CCO/N=C1\CN2CCC1C2 (centres undefined)
5.05

Another: COc1ccc(C#CCO/N=C2\CN3CCC2C3)cc1 (centres undefined)
4.97

Continue with COc1cccc(C#CCO/N=C2\CN3CCC2C3)c1 (centres undefined)
5.11

# evaluate next
Look up pIC50 for this molecule: Fc1cccc(C#CCO/N=C2\CN3CCC2C3)c1 (centres undefined)
5.01
